Reported pKd values follow for various compounds
Molecular target: mMcl-1 (Mus musculus, UniProt P97287)
Sequence (P97287 152-308 limits assumed): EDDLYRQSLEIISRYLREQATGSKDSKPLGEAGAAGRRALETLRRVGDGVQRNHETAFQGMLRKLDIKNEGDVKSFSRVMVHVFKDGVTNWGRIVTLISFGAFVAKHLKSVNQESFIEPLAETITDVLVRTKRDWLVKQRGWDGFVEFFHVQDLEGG
Test: 1H,15N HSQC NMR titration, Mcl-1
Type: binding
Settings: Mcl-1 Kd by 1H,15N HSQC NMR (N)
Please note pKd is a logarithmic value: minus log10 of concentration in mol/L. Answer with that number alone.

Solved entries (count: 5):
# compound, test.system, readout.type, recorded.value
data = [
    ("CCN1CC(c2nc(C(=O)O)cs2)Oc2ccccc21 (stereo not drawn) [Compound 24]", "mMcl-1 (Mus musculus, UniProt P97287)", "pKd", 3.66),
    ("O=C(O)c1csc(C2CN(Cc3ccccc3)c3ccccc3O2)n1 (stereo not drawn) [Compound 25]", "mMcl-1 (Mus musculus, UniProt P97287)", "pKd", 4.40),
    ("O=C(O)c1csc(C2CNc3ccccc3O2)n1 (stereo not drawn) [Compound 23]", "mMcl-1 (Mus musculus, UniProt P97287)", "pKd", 3.44),
    ("O=C(O)c1csc([C@@H]2CN(Cc3ccccc3)c3ccccc3O2)n1 [Compound 27]", "mMcl-1 (Mus musculus, UniProt P97287)", "pKd", 3.85),
    ("O=C(O)c1nc(C2COc3ccccc3O2)sc1Cc1ccccc1 (stereo not drawn) [Compound 22]", "mMcl-1 (Mus musculus, UniProt P97287)", "pKd", 4.07),
]

// below: pKd requested for another compound
Exercise: Requested read-out: pKd. Entry: O=C(O)c1csc([C@H]2CN(Cc3ccccc3)c3ccccc3O2)n1 [Compound 26]
Key: 3.96

###

Measured pKi on hMcl-1 (Homo sapiens, UniProt Q07820) follows.
Sequence (Q07820 171-327 limits assumed): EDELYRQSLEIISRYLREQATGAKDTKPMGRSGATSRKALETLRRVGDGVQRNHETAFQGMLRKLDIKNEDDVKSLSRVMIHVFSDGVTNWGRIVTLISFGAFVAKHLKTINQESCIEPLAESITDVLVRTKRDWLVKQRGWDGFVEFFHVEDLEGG
Please note pKi is a logarithmic value: minus log10 of concentration in mol/L. Answer with that number alone.

Solved entries (count: 2):
# molecule, readout.type, recorded.value
measured = [
    ("O=C(O)c1csc([C@H]2CN(Cc3ccccc3)c3ccccc3O2)n1", "pKi", 4.52),
    ("CCN1CC(c2nc(C(=O)O)cs2)Oc2ccccc21 (stereo not drawn)", "pKi", 4.70),
]

Exercise: Under hMcl-1 (Homo sapiens, UniProt Q07820): pKi value of "O=C(O)c1csc([C@@H]2CN(Cc3ccccc3)c3ccccc3O2)n1" ?
Key: 4.40

Exercise: Under hMcl-1 (Homo sapiens, UniProt Q07820): pKi value of O=C(O)c1csc(C2CNc3ccccc3O2)n1 (stereo not drawn) ?
Key: 3.30

Exercise: Under hMcl-1 (Homo sapiens, UniProt Q07820): pKi value of O=C(O)c1csc(C2CN(Cc3ccccc3)c3ccccc3O2)n1 (stereo not drawn) ?
Key: 4.40

Exercise: Under hMcl-1 (Homo sapiens, UniProt Q07820): pKi value of O=C(O)c1nc(C2COc3ccccc3O2)sc1Cc1ccccc1 (stereo not drawn) ?
Key: 4.40

###

Measured Kd on double His-TEV-hMcl-1 (Homo sapiens) follows.
Sequence (Q07820 171-327 limits assumed): as above
Write the number in µM without appending the unit.

# compound, test.system, Kd (µM)
measured = [
    ("O=C(O)c1nc(C2COc3ccccc3O2)sc1Cc1ccccc1 (centres unmarked) [Compound 22]", "double His-TEV-hMcl-1 (Homo sapiens)", 140),
]

// below: Kd requested for another compound
Exercise: Requested read-out: Kd. Entry: O=C(O)c1csc(C2CN(Cc3ccccc3)c3ccccc3O2)n1 (centres unmarked) [Compound 25]
Key: 450

###

Reported pKi values follow for various compounds
Biological target: hBcl-2 (Homo sapiens)
Sequence (P10415 1-207): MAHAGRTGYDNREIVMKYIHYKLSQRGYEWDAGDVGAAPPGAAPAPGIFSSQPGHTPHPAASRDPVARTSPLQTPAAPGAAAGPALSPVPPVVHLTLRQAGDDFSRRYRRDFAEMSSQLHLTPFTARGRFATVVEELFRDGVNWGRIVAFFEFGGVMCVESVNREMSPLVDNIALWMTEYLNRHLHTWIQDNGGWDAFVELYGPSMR
Assay: FP assay, displacement of F-Puma from hBcl-2
Assay type: binding
Conditions: read-out: Bcl-2 eKi; FP assay; NM = not measurable at top concentration (2.5 mM or solubility limit)
pKi: −log10 of the molar value.

# compound, pKi
data = [
    ("O=C(O)c1csc([C@H]2CN(Cc3ccccc3)c3ccccc3O2)n1 [Compound 26]", "< 2.60"),
    ("O=C(O)c1csc(C2CNc3ccccc3O2)n1 (stereo not drawn) [Compound 23]", "< 2.60"),
]

// below: pKi requested for another compound
Exercise: Requested read-out: pKi. Entry: O=C(O)c1csc([C@@H]2CN(Cc3ccccc3)c3ccccc3O2)n1 [Compound 27]
Key: < 2.60
